Origin of values: ChEMBL document CHEMBL1148120

# System: KB
# testName: Cytotoxicity against human KB cells
# Assay type: functional, cell-based
Lab note: anything with IC50 below 2 µg/mL is marked t; values at 2 µg/mL or higher are marked f.

[[record]]
compound = "C=C1C(=O)O[C@H]2[C@@H]3[C@@](O)(C(=C)CC[C@@H]12)[C@@H]1C[C@@]3(C)O1 [SAHARANOLIDE B]"
grouplabel = "f"

[[record]]
compound = "C=C1C(=O)O[C@H]2[C@H]1CC=C(C)[C@]1(O)C[C@H]3O[C@@]3(C)[C@H]21"
grouplabel = "t"

[[record]]
compound = "C=C1C(=O)O[C@@H]2[C@H]1CCC(C)=C1[C@H]3O[C@](C)([C@H]3O)[C@@H]12 [MOROCCOLIDE A]"
grouplabel = "f"

[[record]]
compound = "C=C1C(=O)O[C@H]2[C@@H]3[C@@](O)(C(C)=CC[C@@H]12)[C@@H]1C[C@@]3(C)O1 [SAHARANOLIDE A]"
grouplabel = "f"


Turning now to a further compound:
Input C=C1C(=O)O[C@@H]2[C@H]1CCC(C)=C1[C@H]3O[C@](C)([C@H]3OC(=O)C(C)CC)[C@@H]12 (stereo partly drawn) [3BETA-O-(2-METHYLBUTYRYL)MOROCCOLIDE A] ; condition: IC50 strictly below 2 µg/mL. Does it hold?
t
